- System: Rat fibroblasts (CREF)
- PROCEDURE_DETAILS: Peg3 promoter luciferase inhibitors, potency, dose response, cell-based, HeLa, CREF/GAPDH counter-screen panel (AID 624167)
- EXPERIMENTAL_PARAMETERS: CREF/GAPDH counter-screens; run 1, dose range 1, at 100 µM (top of the series)
REPORTED_METRIC: inhibition (%)
Give just the number in %; leave the unit off.

Noted for `Cc1cc(S(=O)(=O)c2ccc(Cl)cc2)nc(S(=O)(=O)c2ccc(Cl)cc2)c1C#N` : its inhibition reads 98.2

Memo: `O=C(NCCc1ccccc1)c1ccc2c(c1)OCCO2` , reported inhibition: 99

# inhibition of `O=C1c2cccc3cc([N+](=O)[O-])cc(c23)C(=O)N1CCN1CCCC1` = 80.3

Form field inhibition, entry `CCOC(=O)c1c(SCCN2CCCCC2)n(-c2ccccc2)c(=S)n(-c2ccccc2)c1=O` : 90.4

The compound Cc1ccc(C(C[N+](=O)[O-])Sc2ccc(N)cc2)cc1 (centres undefined) showed inhibition equal to 96.1

get_value(item= `Cc1ccc2nc(-c3ccc(Br)cc3)cn2c1` , readout=inhibition) returns 93.6

// inhibition lookup, compound = `CCOc1ccc2nc(NC(=O)c3ccccn3)sc2c1` , result: 87.1

Notebook: `O=C(NCCc1ccccc1F)c1ccc2c(c1)OCCO2` , inhibition read as 100

Memo: `O=C(Nc1cccc(C(=O)O)c1)Nc1ccc2c(c1)OCO2` , reported inhibition: 84.8

Record `CCCCCCN1C=C/C(=C\C=C(C#N)C#N)c2ccccc21` . Reported inhibition: 43.7

For `CN1CCN(c2ccc(-c3ccc4ccccc4n3)cc2)CC1` the compound record lists inhibition as 98.1

So for `O=c1oc2ccccc2cc1-c1cn2ccccc2n1` , the logged inhibition turned out to be 94.6

Just so you know, measured inhibition for `Cc1cc(C(=O)CN2C(=O)c3ccccc3S2(=O)=O)c(C)n1-c1ccccc1` came out at 90.6

So, CCCCC(=O)NC(c1ccccc1)c1ccc2cccnc2c1O (centres undefined) ? Its inhibition was -26

Looking up `O=C(CCSc1nc2ccccc2s1)N/N=C/c1c(O)ccc2ccccc12` , I see its inhibition listed as 40.6

compound `CC1CCN(c2ccc(-c3cccc(NC(=O)C(F)(F)F)c3)nn2)CC1` , inhibition observed: 99.2

Data point: `O=C(COc1ccc2c(c1)CCC2)Nc1ccccn1` ; inhibition = 97.5

Per the records, this compound ( `OCCNc1c2ccccc2nc2ccccc12` ) has inhibition equal to 73.9

inhibition measured on `Cc1cc(C(=O)COC(=O)c2ccccc2O)c(C)n1Cc1cccs1` = 94.6

The compound identified as `CN(C)c1ccc(/C=C2\SC(=O)N(CCc3nnc(N)s3)C2=O)cc1` registered its inhibition at 83

// inhibition value for `CC(=O)n1cc(N(C(=O)CCl)c2ccc(C)cc2)c2ccccc21` : 99.7

# compound `O=[N+]([O-])c1nn(-c2ccc3c(c2)OCCO3)n(O)c1=Nc1ccc(Cl)cc1` ; its inhibition = 13.6

Value of inhibition reported for the compound `CCOC(=O)c1cnc(Nc2nc3ccccc3o2)nc1C` is 92

For this compound ( `COc1ccc(-n2cc(-c3ccccc3)c3c(N4CCOCC4)ncnc32)cc1` ), measured inhibition is 69.3

// sample C=CCc1cccc(/C=N/NC(=O)C(C)Nc2cccc(C)c2)c1O (centres undefined) , its inhibition was 39.7

The compound identified as CCCC(=O)NC(c1ccccc1)c1ccc2cccnc2c1O (centres undefined) registered its inhibition at 59

Sample `CCc1ccc(/C=C2\SC(=S)N(CCCC(=O)Nc3ccccn3)C2=O)cc1` ; inhibition observed: -3.09

// inhibition value for `CCCn1nc(C(=O)Nc2nc(-c3ccccn3)cs2)c2ccccc2c1=O` : 7.59

Value of measured inhibition for the entry `C/C(=N/NC(=O)c1cc(C2CC2)[nH]n1)c1cccs1` : 95.4

inhibition recorded for this compound, `CC(/C=C/c1ccccc1)=N/NC(=O)c1cc([N+](=O)[O-])cc([N+](=O)[O-])c1` , is 47.1

Entry `O=C(/C=C/c1ccccc1)Nc1cccc(C(=O)O)c1` — recorded inhibition = 96.8

Consider `O=C(NCCc1ccccc1)c1ccc2c(c1)OCCCO2` . Its measured inhibition is 100

Input `O=C(Nc1ccc(N2CCOCC2)cc1)c1cnsn1` . Output inhibition: 97.9

GET /value?item= `O=C(Cn1ncc(Cl)c(Cl)c1=O)N1CCc2ccccc21` &field=inhibition returns 96.2
